B1: CDC14A (parent)
chain: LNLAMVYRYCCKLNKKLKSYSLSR

- Variants of: B1
- procedure_details: protein stability index of a GFP-peptide fusion (GPS, HEK-293T) (PSI 1-6); higher = more stable;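 note: lentivirally expressed fusions sorted by FACS into six bins by GFP to DsRed ratio, PSI derived from sequencing read proportions per bin multiplied by bin number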
- condition_details: c terminus: a fixed tail appended
property: protein stability index
Numbers only.

C11A    2.73
L13G    2.49
V6H    2.03
N2E    3.15
S23N    2.35

Your task in this section: give protein stability index for each listed record.
1. Y20W
2. K15Y
3. K18Q
4. M5E
5. C10D
6. K16H

**A:**
[3.32, 3.3, 1.97, 3, 2.31, 3.33]
